- measured-target: T1, IL10Rα/IL2Rγ receptor (human, UniProt Q13651 22-578; P31785 23-369)
- T1 sequence (looked up) 1: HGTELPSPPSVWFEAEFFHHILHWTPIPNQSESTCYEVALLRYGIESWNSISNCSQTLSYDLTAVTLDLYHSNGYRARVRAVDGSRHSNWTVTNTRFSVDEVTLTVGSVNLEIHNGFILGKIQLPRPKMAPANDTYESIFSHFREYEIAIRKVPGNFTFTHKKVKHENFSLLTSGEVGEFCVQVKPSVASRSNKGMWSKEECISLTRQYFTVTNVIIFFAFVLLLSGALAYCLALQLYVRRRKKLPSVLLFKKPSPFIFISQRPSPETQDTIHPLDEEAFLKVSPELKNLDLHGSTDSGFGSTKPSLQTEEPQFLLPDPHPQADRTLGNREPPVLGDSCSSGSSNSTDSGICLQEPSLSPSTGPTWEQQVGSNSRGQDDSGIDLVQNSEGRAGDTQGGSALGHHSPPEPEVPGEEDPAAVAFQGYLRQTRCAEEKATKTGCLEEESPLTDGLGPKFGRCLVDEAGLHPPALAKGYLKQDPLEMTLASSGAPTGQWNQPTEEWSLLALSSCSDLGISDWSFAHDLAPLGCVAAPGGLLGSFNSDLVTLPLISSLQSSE
- T1 sequence (looked up) 2: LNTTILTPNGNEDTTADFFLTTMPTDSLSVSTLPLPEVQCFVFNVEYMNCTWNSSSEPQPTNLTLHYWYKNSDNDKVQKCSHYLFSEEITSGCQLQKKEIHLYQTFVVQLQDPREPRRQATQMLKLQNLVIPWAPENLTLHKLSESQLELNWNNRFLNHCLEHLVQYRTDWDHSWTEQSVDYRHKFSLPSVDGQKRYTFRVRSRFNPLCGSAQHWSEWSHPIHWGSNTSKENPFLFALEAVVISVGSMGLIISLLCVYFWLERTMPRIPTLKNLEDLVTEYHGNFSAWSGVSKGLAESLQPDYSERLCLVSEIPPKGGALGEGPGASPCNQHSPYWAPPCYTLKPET
- protocol-text: cell-based or functional assay
measured-parameter: pSTAT3 MFI, CD8 T cells, 0.0001 nM (unstimulated 1446) (MFI)
Answers are plain numbers, in MFI.

binder	measured-number
DR395(DR229-DR239) (bispecific antibody) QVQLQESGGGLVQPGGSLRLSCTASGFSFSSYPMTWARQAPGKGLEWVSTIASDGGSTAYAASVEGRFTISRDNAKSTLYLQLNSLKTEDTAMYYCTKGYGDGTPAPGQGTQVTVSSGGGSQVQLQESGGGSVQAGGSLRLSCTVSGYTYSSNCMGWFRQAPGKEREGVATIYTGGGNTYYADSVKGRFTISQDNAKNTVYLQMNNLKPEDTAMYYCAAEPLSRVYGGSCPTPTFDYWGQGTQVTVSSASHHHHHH	1380
DR441(DR236-DR231) (bispecific antibody) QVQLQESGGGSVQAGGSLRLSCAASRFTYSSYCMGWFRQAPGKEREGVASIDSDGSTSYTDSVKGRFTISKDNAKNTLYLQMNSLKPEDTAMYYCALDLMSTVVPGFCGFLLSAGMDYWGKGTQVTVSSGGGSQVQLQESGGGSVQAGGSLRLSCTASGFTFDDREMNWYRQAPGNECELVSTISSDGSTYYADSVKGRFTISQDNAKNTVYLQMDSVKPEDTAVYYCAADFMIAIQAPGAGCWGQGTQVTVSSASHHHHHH	1380
DR465(DR240-DR231) (bispecific antibody) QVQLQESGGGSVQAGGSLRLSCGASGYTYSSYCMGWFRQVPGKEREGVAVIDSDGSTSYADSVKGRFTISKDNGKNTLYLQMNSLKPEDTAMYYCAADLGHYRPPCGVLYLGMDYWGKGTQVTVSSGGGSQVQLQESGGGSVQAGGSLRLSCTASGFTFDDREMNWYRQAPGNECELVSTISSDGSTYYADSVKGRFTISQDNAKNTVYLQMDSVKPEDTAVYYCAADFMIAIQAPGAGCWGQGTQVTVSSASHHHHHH	1390

Please examine the following record next.
# input State the recorded pSTAT3 MFI, CD8 T cells, 0.0001 nM (unstimulated 1446) for this entry: DR471(DR241-DR231) (bispecific antibody) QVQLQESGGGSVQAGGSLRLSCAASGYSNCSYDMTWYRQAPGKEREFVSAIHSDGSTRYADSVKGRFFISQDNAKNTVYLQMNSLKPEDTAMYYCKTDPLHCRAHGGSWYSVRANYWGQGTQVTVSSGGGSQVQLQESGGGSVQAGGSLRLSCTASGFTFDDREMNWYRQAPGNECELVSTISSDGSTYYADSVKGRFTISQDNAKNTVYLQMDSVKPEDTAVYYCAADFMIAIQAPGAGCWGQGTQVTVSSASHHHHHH
# output 1400

Cited source: patent US20250163162A1
